# Test system: Escherichia coli ATCC 25922
# EXPERIMENTAL DETAILS: Oral formulations on mice with systemic bacterial infection
# Type: in vivo, ICR mice
# CONDITION SET: 0.2 mg/kg gavage, three times a day for 7 days, observed for 14 d, n = 10
Marks after values point to notes of the source that are not given here. Non-standard residues stand in square brackets, D forms with d. Residues, ends and D or L forms follow the SMILES beside them. d2Nal = N[C@H](Cc1ccc2ccccc2c1)C(=O)O
Assignment: determine reported Average survival times (Days) for the given compounds.

Given item CC(=O)N[C@H](CCCNC(=N)N)C(=O)N[C@H](CCCCN)C(=O)N[C@H](CC(C)C)C(=O)N[C@H](CC(C)C)C(=O)N[C@H](Cc1ccc2ccccc2c1)C(=O)N[C@H](CCCNC(=N)N)C(=O)N[C@H](CC(C)C)C(=O)N[C@H](CCCCN)C(=O)N[C@H](Cc1ccc2ccccc2c1)C(=O)N[C@H](CCCNC(=N)N)C(=O)N[C@H](CCCCN)C(N)=O [LV-20] (Ac-[dR][dK][dL][dL][d2Nal][dR][dL][dK][d2Nal][dR][dK]-NH2) , the value recorded as its Average survival times (Days) is 9.1** Days

Field Average survival times (Days) (entry CC(=O)N[C@H](CCCNC(=N)N)C(=O)N[C@H](CCCNC(=N)N)C(=O)N[C@H](CC(C)C)C(=O)N[C@H](CC(C)C)C(=O)N[C@H](Cc1ccc2ccccc2c1)C(=O)N[C@H](CCCNC(=N)N)C(=O)N[C@H](CC(C)C)C(=O)N[C@H](CCCNC(=N)N)C(=O)N[C@H](Cc1ccc2ccccc2c1)C(=O)N[C@H](CCCNC(=N)N)C(=O)N[C@H](CCCNC(=N)N)C(N)=O [LV-1] (Ac-[dR][dR][dL][dL][d2Nal][dR][dL][dR][d2Nal][dR][dR]-NH2) ) reads 9.9** Days

// CC(=O)N[C@H](CCCNC(=N)N)C(=O)N[C@H](CCCCN)C(=O)N[C@H](CC(C)C)C(=O)N[C@H](CC(C)C)C(=O)N[C@H](Cc1ccc2ccccc2c1)C(=O)N[C@H](CCCCN)C(=O)N[C@H](CC(C)C)C(=O)N[C@H](CCCCN)C(=O)N[C@H](Cc1ccc2ccccc2c1)C(=O)N[C@H](CCCCN)C(=O)N[C@H](CCCNC(=N)N)C(N)=O [LV-18] (Ac-[dR][dK][dL][dL][d2Nal][dK][dL][dK][d2Nal][dK][dR]-NH2) : Average survival times (Days) value = 10.8*** Days

According to the records, this compound CC(=O)N[C@H](CCCCN)C(=O)N[C@H](CCCCN)C(=O)N[C@H](CC(C)C)C(=O)N[C@H](CC(C)C)C(=O)N[C@H](Cc1ccc2ccccc2c1)C(=O)N[C@H](CCCNC(=N)N)C(=O)N[C@H](CC(C)C)C(=O)N[C@H](CCCCN)C(=O)N[C@H](Cc1ccc2ccccc2c1)C(=O)N[C@H](CCCNC(=N)N)C(=O)N[C@H](CCCCN)C(N)=O [LV-19] (Ac-[dK][dK][dL][dL][d2Nal][dR][dL][dK][d2Nal][dR][dK]-NH2) displays Average survival times (Days) of 9.4** Days

###

# Test system: Pseudomonas aeruginosa ATCC 27853
# EXPERIMENTAL DETAILS: Injectable formulations on mice infected with peritonitis
# Assay type: in vivo, ICR mice
# CONDITION SET: 5 mg/kg via tail vein, twice a day for 3 days, observed for 14 d, n = 10
Marks after values point to notes of the source that are not given here. Non-standard residues stand in square brackets, D forms with d. Residues, ends and D or L forms follow the SMILES beside them. dPhe(3,4-F2) = N[C@H](Cc1ccc(F)c(F)c1)C(=O)O; d2Nal = N[C@H](Cc1ccc2ccccc2c1)C(=O)O; dNle = CCCC[C@@H](N)C(=O)O
READOUT LABEL: Average survival times (Days)

Sample CC(=O)N[C@H](CCCNC(=N)N)C(=O)N[C@H](CCCCN)C(=O)N[C@H](CC(C)C)C(=O)N[C@H](CC(C)C)C(=O)N[C@H](Cc1ccccc1)C(=O)N[C@H](CCCNC(=N)N)C(=O)N[C@H](CC(C)C)C(=O)N[C@H](CCCCN)C(=O)N[C@H](Cc1ccccc1)C(=O)N[C@H](CCCNC(=N)N)C(=O)N[C@H](CCCCN)C(N)=O [LV-2] (Ac-[dR][dK][dL][dL][dF][dR][dL][dK][dF][dR][dK]-NH2) ; Average survival times (Days) observed: 11.6**** Days

Measured Average survival times (Days), C[C@H]1COc2c(N3CCN(C)CC3)c(F)cc3c(=O)c(C(=O)O)cn1c23 [Levofloxacin, reference compound] : 5.9* Days

Query CC(=O)N[C@H](CCCCN)C(=O)N[C@H](CCCCN)C(=O)N[C@H](CC(C)C)C(=O)N[C@H](CC(C)C)C(=O)N[C@H](Cc1ccc2ccccc2c1)C(=O)N[C@H](CCCNC(=N)N)C(=O)N[C@H](CC(C)C)C(=O)N[C@H](CCCCN)C(=O)N[C@H](Cc1ccc2ccccc2c1)C(=O)N[C@H](CCCNC(=N)N)C(=O)N[C@H](CCCCN)C(N)=O [LV-19] (Ac-[dK][dK][dL][dL][d2Nal][dR][dL][dK][d2Nal][dR][dK]-NH2) yields Average survival times (Days) of 10.5**** Days

GET /value?item= CC(=O)N[C@H](CCCCN)C(=O)N[C@H](CCCCN)C(=O)N[C@H](CC(C)C)C(=O)N[C@H](CC(C)C)C(=O)N[C@H](Cc1ccc(F)c(F)c1)C(=O)N[C@H](CCCNC(=N)N)C(=O)N[C@H](CC(C)C)C(=O)N[C@H](CCCCN)C(=O)N[C@H](Cc1ccc(F)c(F)c1)C(=O)N[C@H](CCCNC(=N)N)C(=O)N[C@H](CCCCN)C(N)=O [LV-25] (Ac-[dK][dK][dL][dL][dPhe(3,4-F2)][dR][dL][dK][dPhe(3,4-F2)][dR][dK]-NH2) &field=Average survival times (Days) returns 10.4**** Days

get_value(item= CCCC[C@@H](NC(=O)[C@@H](CCCCN)NC(=O)[C@@H](CCCNC(=N)N)NC(C)=O)C(=O)N[C@H](CCCC)C(=O)N[C@H](Cc1ccc2ccccc2c1)C(=O)N[C@H](CCCNC(=N)N)C(=O)N[C@H](CCCC)C(=O)N[C@H](CCCCN)C(=O)N[C@H](Cc1ccc2ccccc2c1)C(=O)N[C@H](CCCNC(=N)N)C(=O)N[C@H](CCCCN)C(N)=O [LV-12] (Ac-[dR][dK][dNle][dNle][d2Nal][dR][dNle][dK][d2Nal][dR][dK]-NH2) , readout=Average survival times (Days)) returns 9.7*** Days

Entry CC(=O)N[C@H](CCCNC(=N)N)C(=O)N[C@H](CCCNC(=N)N)C(=O)N[C@H](CC(C)C)C(=O)N[C@H](CC(C)C)C(=O)N[C@H](Cc1ccc2ccccc2c1)C(=O)N[C@H](CCCNC(=N)N)C(=O)N[C@H](CC(C)C)C(=O)N[C@H](CCCNC(=N)N)C(=O)N[C@H](Cc1ccc2ccccc2c1)C(=O)N[C@H](CCCNC(=N)N)C(=O)N[C@H](CCCNC(=N)N)C(N)=O [LV-1] (Ac-[dR][dR][dL][dL][d2Nal][dR][dL][dR][d2Nal][dR][dR]-NH2) — recorded Average survival times (Days) = 9.1** Days

In plain terms, CC(=O)N[C@H](CCCNC(=N)N)C(=O)N[C@H](CCCCN)C(=O)N[C@H](CC(C)C)C(=O)N[C@H](CC(C)C)C(=O)N[C@H](Cc1ccc(F)c(F)c1)C(=O)N[C@H](CCCCN)C(=O)N[C@H](CC(C)C)C(=O)N[C@H](CCCCN)C(=O)N[C@H](Cc1ccc(F)c(F)c1)C(=O)N[C@H](CCCCN)C(=O)N[C@H](CCCNC(=N)N)C(N)=O [LV-6] (Ac-[dR][dK][dL][dL][dPhe(3,4-F2)][dK][dL][dK][dPhe(3,4-F2)][dK][dR]-NH2) has a documented Average survival times (Days) of 9.2*** Days

Notebook: CC(=O)N[C@H](CCCNC(=N)N)C(=O)N[C@H](CCCCN)C(=O)N[C@H](CC(C)C)C(=O)N[C@H](CC(C)C)C(=O)N[C@H](Cc1ccc2ccccc2c1)C(=O)N[C@H](CCCCN)C(=O)N[C@H](CC(C)C)C(=O)N[C@H](CCCCN)C(=O)N[C@H](Cc1ccc2ccccc2c1)C(=O)N[C@H](CCCCN)C(=O)N[C@H](CCCNC(=N)N)C(N)=O [LV-18] (Ac-[dR][dK][dL][dL][d2Nal][dK][dL][dK][d2Nal][dK][dR]-NH2) , Average survival times (Days) read as 10.5**** Days

Sure, the documented Average survival times (Days) for CC(=O)N[C@H](CCCNC(=N)N)C(=O)N[C@H](CCCCN)C(=O)N[C@H](CC(C)C)C(=O)N[C@H](CC(C)C)C(=O)N[C@H](Cc1ccc2ccccc2c1)C(=O)N[C@H](CCCNC(=N)N)C(=O)N[C@H](CC(C)C)C(=O)N[C@H](CCCCN)C(=O)N[C@H](Cc1ccc2ccccc2c1)C(=O)N[C@H](CCCNC(=N)N)C(=O)N[C@H](CCCCN)C(N)=O [LV-20] (Ac-[dR][dK][dL][dL][d2Nal][dR][dL][dK][d2Nal][dR][dK]-NH2) is 10.3**** Days

The compound listed as CC(=O)N[C@H](CCCCN)C(=O)N[C@H](CCCCN)C(=O)N[C@H](CC(C)C)C(=O)N[C@H](CC(C)C)C(=O)N[C@H](Cc1ccc2ccccc2c1)C(=O)N[C@H](CCCCN)C(=O)N[C@H](CC(C)C)C(=O)N[C@H](CCCCN)C(=O)N[C@H](Cc1ccc2ccccc2c1)C(=O)N[C@H](CCCCN)C(=O)N[C@H](CCCCN)C(N)=O [LV-17] (Ac-[dK][dK][dL][dL][d2Nal][dK][dL][dK][d2Nal][dK][dK]-NH2) shows Average survival times (Days) equal to 9.5*** Days
